Give EC50 for every item shown.
target: IKZF1 (Homo sapiens, UniProt Q13422+Q96SW2); assay: Recruitment Assay (MAPPIT-like): IKZF1 recruitment, pSEL-CRBN+pMG1-IKZF1(isoform 7); conditions: recruitment of IKZF1, protocol of Example 2; read-out: EC50_IKZF1
Report as a plain number; the unit nM is understood.

Exercise: Item O=C1CCC(N2Cc3cc(Nc4ncc5c(n4)COC5)ccc3C2=O)C(=O)N1 (stereo not drawn) [Compound C80380] has what recorded EC50?
Solution: 1780

Exercise: Now try O=C1CCC(N2Cc3c(Cl)cccc3C2=O)C(=O)N1 (stereo not drawn) [Compound C24031] .
Solution: 58.7

Exercise: Now try CS(=O)(=O)Nc1cccc2c1CN(C1CCC(=O)NC1=O)C2=O (stereo not drawn) [Compound C22548] .
Solution: 494

Exercise: Now try Cc1cccc2c1CN(C1CCC(=O)NC1=O)C2=O (stereo not drawn) [Compound C28558] .
Solution: 77.4

Exercise: Now try O=C1CCC(N2Cc3c(NC(=O)Nc4cccc5c4CN(C4CCC(=O)NC4=O)C5=O)cccc3C2=O)C(=O)N1 (stereo not drawn) [Compound C30231] .
Solution: 2730

Exercise: Now try N#CC1c2ccccc2C(=O)N1C1CCC(=O)NC1=O (stereo not drawn) [Compound C39453] .
Solution: 17100

Exercise: Now try N#Cc1ccc2c(c1)C(=O)N(C1CCC(=O)NC1=O)C2 (stereo not drawn) [Compound C48007] .
Solution: 1620

Exercise: Now try Nc1cccc2c1CN(C1CC(=O)NC1=O)C2=O (stereo not drawn) [Compound C47930] .
Solution: 784

Exercise: Now try CC1c2ccccc2C(=O)N1C1CCC(=O)NC1=O (stereo not drawn) [Compound C51383] .
Solution: 1520

Exercise: Now try Cc1cccc2nnn(C3CCC(=O)NC3=O)c(=O)c12 (stereo not drawn) [Compound C13247] .
Solution: 2880

Exercise: Now try CN(C)c1ccc2c(c1)CN(C1CCC(=O)NC1=O)C2=O (stereo not drawn) [Compound C98103] .
Solution: 1290

###

target: CRBN (Homo sapiens, UniProt Q96SW2); construct: expressed in transfected cells; host or cells: HEK293T; test: Competition Assay: MAPPIT-like, competition with trimethoprim-lenalidomide hybrid ligand for binding to CRBN in HEK293T cells; assay type: cell-based; conditions: HEK293T cells, 300 nM trimethoprim-lenalidomide hybrid ligand, luciferase 24 hours after compound treatment; read-out: Competition IC50
readout_type: pIC50
The scale used: pIC50 is minus the common logarithm of the concentration in molar units.

Exercise: Item CC/C(=C(\c1ccccc1)c1ccc(OCCN(C)CC(=O)NCCOCCOCCNC(=O)COc2cccc3c2CN(C2CCC(=O)NC2=O)C3=O)cc1)c1ccccc1 (centres unmarked) has what recorded pIC50?
Solution: 6.08

Exercise: Now try CC/C(=C(\c1ccccc1)c1ccc(OCCN(C)CC(=O)NCCOCCOCCOCCNC(=O)COc2cccc3c2CN(C2CCC(=O)NC2=O)C3=O)cc1)c1ccccc1 (centres unmarked) .
Solution: 5.98

Exercise: Now try C#CCOCCOCCOCCNC(=O)COc1ccc2nc(C(=O)Nc3ccc4c(c3)C(=O)N(C3CCC(=O)NC3=O)C4)ccc2c1 (centres unmarked) .
Solution: 6.06

Exercise: Now try C#CCOCCOCCOCCOCC(=O)Nc1ccc(-c2cccc3c2C(=O)N(C2CCC(=O)NC2=O)C3)cc1 (centres unmarked) .
Solution: 6.71

Exercise: Now try Cc1sc2c(c1C)C(c1ccc(Cl)cc1)=N[C@@H](CC(=O)NCCOCCOCCOCCNC(=O)COc1cccc3c1CN(C1CCC(=O)NC1=O)C3=O)c1nnc(C)n1-2 (some centres unmarked) .
Solution: 7.00

Exercise: Now try C#CCOCCOCCOCCNc1nc(Nc2ccc3c(c2)CN(C2CCC(=O)NC2=O)C3=O)c2ccsc2n1 (centres unmarked) .
Solution: 6.36

Exercise: Now try CC/C(=C(\c1ccccc1)c1ccc(OCCN(C)CC(=O)NCCNC(=O)COc2cccc3c2CN(C2CCC(=O)NC2=O)C3=O)cc1)c1ccccc1 (centres unmarked) .
Solution: 5.24

Exercise: Now try Cc1sc2c(c1C)C(c1ccc(Cl)cc1)=N[C@@H](CC(=O)NCCOCCOCCOCCOCCNC(=O)COc1cccc3c1CN(C1CCC(=O)NC1=O)C3=O)c1nnc(C)n1-2 (some centres unmarked) .
Solution: 6.96
